Source listed as paper PMC5540273.

Tested on: TGFBR1;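 also: kd values determined as follow-up on hits from a single-replicate KINOMEscan panel screen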
Measurement type: pKd
Numbers only, as −log10 of the molar value.

Compound	Observed measurement
Cc1cccc(-c2nc(C)cc(Nc3ccncc3)n2)n1 [GSK257997]	6.70

Then there is this compound:
Q) Record lookup: for TGFBR1, what pKd belongs to Cl.c1ccc(-c2n[nH]cc2-c2ccnc(-c3ccc(CN4CCOCC4)cc3)c2)nc1 [GW776245] ?
A) 6.82

* * *

What %Inh was measured for each of the following?
Test system: TIE2;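 also: KINOMEscan kinase panel screen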
Construct: gene TEK
Conditions: concentration: 1 μM, replicates: in singlicate; n = 1
One number for each entry, in %.

Some molecules with recorded %Inh:
Molecule	Measurement type	Unit info	Observed measurement
Fc1cc(Cl)ccc1Nc1ccnc2cc(I)ccc12 [GW551191]	%Inh	%	0
Cl.O=C(Nc1cccc(-c2nn3ncccc3c2-c2ccnc(Nc3cccnc3)n2)c1)c1c(F)cccc1F [GSK312879]	%Inh	%	1
COc1cc2ncn(-c3cc(OCC4CCCO4)c(C(N)=O)s3)c2cc1OC (stereo not shown) [GSK204607]	%Inh	%	0
Cc1cccc(-c2nc(Nc3cccc(C(N)=O)c3)c3ccccc3n2)n1 [GW876019]	%Inh	%	41
Cc1cccc(-c2nc(C)cc(Nc3ccncc3)n2)n1 [GSK257997]	%Inh	%	8
O=C(Nc1n[nH]c2nc(-c3nccs3)c(Br)cc12)C1CCCC1 [SB-742609]	%Inh	%	0
Cl.Oc1ccc(-c2nc(-c3ccccc3)[nH]c2-c2ccncc2)cc1 [SB-428218]	%Inh	%	0
Cn1ccc2ncnc(Oc3cccc(C(=O)Nc4ccccc4)c3)c21	%Inh	%	0
Cl.NC(=O)c1cccc(Nc2nccc(Nc3ccc(Oc4cccc(Cl)c4)c(Cl)c3)n2)c1 [GW659008]	%Inh	%	1
NC(=O)c1nnc2ccccc2c1N	%Inh	%	98.7

Hey, can you go through the list below and give me %Inh for every item?
1. Cc1cccc(-c2nc(Nc3ccncc3)c3ccccc3n2)n1 [GW855857]
2. COc1cc(Nc2nccc(N3CCC(NC(=O)Nc4cc(C)ccc4C)C3)n2)cc(OC)c1OC (stereo not shown) [GSK1379762]
3. CN1C(=O)C(Nc2ccc(Cl)c(C(=O)O)c2)=C(c2ccc(Cl)cc2)C1=O [SB-404290]
4. CSc1nn2c(=O)cc(N3CCOCC3)nc2n1Cc1cccc(C(F)(F)F)c1C [GSK2363608]

A)
[27, 2, 14, 0]
